Here the recorded % Main rHuPH20 peak by non-denaturing SEC is given for each entry.
Experiment: Non-denaturing SEC: percent main peak / aggregates of insulin and rHuPH20
Assay type: physicochemical
Conditions: 35° C.; Table 22 concentrations

The examples below pair each entry with its known result.
{"columns": ["molecule", "measured_value"],
 "data": [
  ["N=C(NCCCCCCNC(=N)NC(=N)Nc1ccc(Cl)cc1)NC(=N)Nc1ccc(Cl)cc1.O=C(O)[C@H](O)[C@@H](O)[C@H](O)[C@H](O)CO.O=C(O)[C@H](O)[C@@H](O)[C@H](O)[C@H](O)CO [Chlorhexidine digluconate]", "98.30%"],
  ["COC(=O)c1ccc(O)cc1", "96.91%"],
  ["N[C@@H](Cc1ccccc1)C(=O)O", "99.80%"]
]}

Attention now turns to another entry.
Would you mind telling me what % Main rHuPH20 peak by non-denaturing SEC value was observed for Cc1cccc(O)c1 ?
0.834%

###

Target: rHuPH20 (Homo sapiens)
Construct: made in house; host or cells: CHO cells (DG44 CHO, HZ24 plasmid, clone 2B2)
Assay: Determination of hyaluronidase activity of rHuPH20, turbidimetric assay (Example 2, variant not specified)
Type: biochemical
Conditions: t = 0; 100 μg/mL rHuPH20, pH 7.3, 140 mM NaCl, 0.01% polysorbate 80; preservative levels of Table 21; in U/mL
Structures can show the parent of a compound that is named as a salt.
property: rHuPH20 activity

Recorded results for 4 compounds are shown here.
{"columns": ["compound", "rHuPH20 activity"],
 "data": [
  ["OCCCCCl", "11,350"],
  ["[H]/N=C(\\N/C(=N/[H])NCCCCCCNC(=N)NC(=N)Nc1ccc(Cl)cc1)Nc1ccc(Cl)cc1 [Chlorhexidine dihydrochloride]", "7,720"],
  ["N[C@@H](Cc1ccccc1)C(=O)O", "13,420"],
  ["C[CH2][Hg][S]c1ccccc1C(=O)[O-].[Na+]", "10,290"]
]}

// returns reported rHuPH20 activity for input N=C(NCCCCCCNC(=N)NC(=N)Nc1ccc(Cl)cc1)NC(=N)Nc1ccc(Cl)cc1.O=C(O)[C@H](O)[C@@H](O)[C@H](O)[C@H](O)CO.O=C(O)[C@H](O)[C@@H](O)[C@H](O)[C@H](O)CO [Chlorhexidine digluconate]
9,590

###

Biological target: rHuPH20 (Homo sapiens)
Construct: made in house; host or cells: CHO cells (DG44 CHO, HZ24 plasmid, clone 2B2)
Sequence (P38567 36-482): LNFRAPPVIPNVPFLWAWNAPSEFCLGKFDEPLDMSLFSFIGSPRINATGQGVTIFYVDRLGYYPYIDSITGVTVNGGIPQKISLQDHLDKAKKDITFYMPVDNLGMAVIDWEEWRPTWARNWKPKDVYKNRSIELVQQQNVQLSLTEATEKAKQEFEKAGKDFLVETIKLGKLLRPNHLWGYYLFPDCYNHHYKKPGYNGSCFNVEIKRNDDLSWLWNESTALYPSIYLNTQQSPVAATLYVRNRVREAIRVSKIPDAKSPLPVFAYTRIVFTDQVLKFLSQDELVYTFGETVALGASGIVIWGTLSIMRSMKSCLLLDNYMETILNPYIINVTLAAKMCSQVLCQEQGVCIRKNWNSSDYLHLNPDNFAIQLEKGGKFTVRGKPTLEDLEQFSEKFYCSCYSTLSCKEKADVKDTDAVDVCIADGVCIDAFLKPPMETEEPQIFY
Assay: Determination of hyaluronidase activity of rHuPH20, turbidimetric assay (Example 2, variant not specified)
Format: biochemical
Details: 6 days, 35° C.; in U/mL
Where a name gives a salt, the structure may show the parent alone.
Below, each entry is listed alongside its reported rHuPH20 activity.
Please state the value as a number alone, without comment.

Some entries whose results are on file:
{"columns": ["molecule", "rHuPH20 activity"],
 "data": [
  ["[H]/N=C(\\N/C(=N/[H])NCCCCCCNC(=N)NC(=N)Nc1ccc(Cl)cc1)Nc1ccc(Cl)cc1 [Chlorhexidine dihydrochloride]", 11890],
  ["N=C(NCCCCCCNC(=N)NC(=N)Nc1ccc(Cl)cc1)NC(=N)Nc1ccc(Cl)cc1.O=C(O)[C@H](O)[C@@H](O)[C@H](O)[C@H](O)CO.O=C(O)[C@H](O)[C@@H](O)[C@H](O)[C@H](O)CO [Chlorhexidine digluconate]", 12270],
  ["C[CH2][Hg][S]c1ccccc1C(=O)[O-].[Na+]", 10070]
]}

Kindly consider the entry below.
Reported rHuPH20 activity for N[C@@H](Cc1ccccc1)C(=O)O : what is it?
10660

###

Experiment: Non-denaturing SEC: percent main peak / aggregates of insulin and rHuPH20
Type: physicochemical
Details: 4° C.; Table 22 concentrations
Catalogue of % Main rHuPH20 peak by non-denaturing SEC readings, one per entry.
// units = %; emit number, no label

Some solved cases for reference:
{"columns": ["molecule", "unit_descriptor", "measured_value"],
 "data": [
  ["COC(=O)c1ccc(O)cc1", "%", 100.00],
  ["N[C@@H](Cc1ccccc1)C(=O)O", "%", 100.00],
  ["N=C(NCCCCCCNC(=N)NC(=N)Nc1ccc(Cl)cc1)NC(=N)Nc1ccc(Cl)cc1.O=C(O)[C@H](O)[C@@H](O)[C@H](O)[C@H](O)CO.O=C(O)[C@H](O)[C@@H](O)[C@H](O)[C@H](O)CO [Chlorhexidine digluconate]", "%", 99.77]
]}

Return reported % Main rHuPH20 peak by non-denaturing SEC; argument: Cc1cccc(O)c1
100.00

###

Assay: Non-denaturing SEC: percent main peak / aggregates of insulin and rHuPH20
Assay type: physicochemical
Details: 4° C., 1 day
Description: Reference samples were stored in HPLC vials at 10° C. prior to use. Samples were stored in HPLC vials at 10° C. prior to use, for up to 3 days. 0.5× Phosphate Buffered Saline (PBS) solution was prepared by diluting 10×PBS with HPLC grade water. Insulin percent purity was expressed as percentage of the insulin main peak versus the total insulin peaks. The target specification is less than 2% high molecular weight protein, i.e., insulin aggregates. […]
Where a name gives a salt, the structure may show the parent alone.
property: % Main rHuPH20 peak by non-denaturing SEC (%)
Give a bare numeral; the unit % is implied.

Examples with their reported % Main rHuPH20 peak by non-denaturing SEC follow.
{"columns": ["compound", "measured_value"],
 "data": [
  ["C[CH2][Hg][S]c1ccccc1C(=O)[O-].[Na+] [Thimerosal]", 98.59],
  ["N=C(NCCCCCCNC(=N)NC(=N)Nc1ccc(Cl)cc1)NC(=N)Nc1ccc(Cl)cc1.O=C(O)[C@H](O)[C@@H](O)[C@H](O)[C@H](O)CO.O=C(O)[C@H](O)[C@@H](O)[C@H](O)[C@H](O)CO [Chlorhexidine digluconate]", 98.35],
  ["[H]/N=C(\\N/C(=N/[H])NCCCCCCNC(=N)NC(=N)Nc1ccc(Cl)cc1)Nc1ccc(Cl)cc1 [Chlorhexidine dihydrochloride]", 98.76],
  ["N[C@@H](Cc1ccccc1)C(=O)O [L-Phenylalanine]", 98.27]
]}

Next, consider the following compound.
Fill in: % Main rHuPH20 peak by non-denaturing SEC of OCCCCCl [4-Chloro-1-butanol] is ___
97.89
